# experimental protocol: NCI Yeast Anticancer Drug Screen. Data for the sgs1 mgt1 strain (AID 161);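 note: 0% = growth of cultures given vehicle only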
# measurement setup: S. cerevisiae sgs1 mgt1 strain, at 50.0 µM, hits give high values
Compounds without any hit were thinned out: in the full panel of roughly 79,000, 15% have a hit.
measurement type: growth inhibition (%)

[
  {
    "molecule": "CC(=O)OC1=C(OC(C)=O)N(S(=O)(=O)c2ccc(C)cc2)CCc2ccccc21",
    "value units": "%",
    "value reported": 36.6
  },
  {
    "molecule": "CSC1(C)C(=O)Nc2ccc(C(F)(F)F)cc21 (stereo not given)",
    "value units": "%",
    "value reported": -0.05
  },
  {
    "molecule": "COC(=O)C12OCC34C(CC5C(C)CC(=O)C(O)C5(C)C3C(O)C1O)OC(=O)C(OC(C)=O)C24 (stereo not given)",
    "value units": "%",
    "value reported": 11.6
  },
  {
    "molecule": "COc1c2ccoc2c(OC)c2oc(=O)ccc12",
    "value units": "%",
    "value reported": 11.7
  },
  {
    "molecule": "CCCc1[nH]n(-c2cccc([N+](=O)[O-])c2)c(=O)c1N=Nc1ccc(Cl)cc1",
    "value units": "%",
    "value reported": 21.5
  }
]

----------
# experimental protocol: NCI Yeast Anticancer Drug Screen. Data for the cln2 rad14 strain (AID 165);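 note: 0% = growth equal to vehicle treated cultures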
# measurement setup: S. cerevisiae cln2 rad14 strain, at 50.0 µM, hits give high values
The panel holds about 79,000 compounds, 15% with a hit somewhere; the sample as a whole holds those more often. Where a SMILES comes first, the peptide text is derived from it. [ ]: non-standard residue; d: D form. The star is where a group is joined. ξ: configuration not given here. ξAsp(βξ-Me) = CC(C(=O)O)C(N)C(=O)O; X11 = CC(N*)C1NC(=O)C2CCCCN2C1=O; ξAbu(3ξ-NH2) = CC(N)C(N)C(=O)O; X10 = CCC(C)CCC/C=C/CC(=O)*

[
  {
    "compound": "CCC(C)CCC/C=C/CC(=O)NC(CC(=O)O)C(=O)NC(C(=O)NC(CC(=O)O)C(=O)NCC(=O)NC(CC(=O)O)C(=O)NCC(=O)NC(C(=O)NC(C(=O)N1CCCC1C(=O)NC(C)C1NC(=O)C2CCCCN2C1=O)C(C)C)C(C)N)C(C)C(=O)O (stereo not drawn) (X10-D[ξAsp(βξ-Me)]DGDG[ξAbu(3ξ-NH2)]VP-X11; configuration not given here)",
    "growth inhibition, %": -67.4
  },
  {
    "compound": "Cc1ccc(S(=O)(=O)C(=S)N(C)N(C)C)cc1",
    "growth inhibition, %": -12.9
  },
  {
    "compound": "CCOC(=O)CCC(=O)C(=O)OCC",
    "growth inhibition, %": 20.9
  },
  {
    "compound": "CCNc1ncnc2c1cnn2C1CCCCC1",
    "growth inhibition, %": -35.9
  },
  {
    "compound": "CCOC(=O)C(/C=N/C(=S)Nc1c(C)cccc1C)=C(/O)c1ccccc1",
    "growth inhibition, %": -18.6
  },
  {
    "compound": "CCCCCCCCCC1OCC(COCC)O1 (stereo unspecified)",
    "growth inhibition, %": -17.4
  },
  {
    "compound": "Fc1ccccc1C1CC(c2ccc3ccccc3c2)=Nc2ccccc2S1 (stereo unspecified)",
    "growth inhibition, %": 13.4
  },
  {
    "compound": "COc1ccc2ccccc2c1",
    "growth inhibition, %": -23.9
  },
  {
    "compound": "CCCCSc1nc2ccc(N=Cc3ccccc3O)cc2s1",
    "growth inhibition, %": -17.7
  },
  {
    "compound": "CCN1C(=O)N(CC)C2(CC(=O)c3ccccc3O2)C1=O (stereo unspecified)",
    "growth inhibition, %": 7.15
  },
  {
    "compound": "OCC(CO)=C1c2ccccc2-c2ccccc21",
    "growth inhibition, %": -28.8
  },
  {
    "compound": "CC(=O)Nc1ccc2c(c1)C(P(=O)(OC(C)C)OC(C)C)c1ccccc1-2 (stereo unspecified)",
    "growth inhibition, %": -1.4
  },
  {
    "compound": "N#C/C(=N\\NC(=O)c1cccc(C(=O)N/N=C(\\C#N)c2ccccc2Cl)n1)c1ccccc1Cl",
    "growth inhibition, %": -14.6
  },
  {
    "compound": "CC(=O)OC/C(C)=N\\NS(=O)(=O)c1cc(Cl)c(Cl)cc1Cl",
    "growth inhibition, %": 13.8
  },
  {
    "compound": "CC(=O)Nc1ccc(C(=O)NN2C(=O)C(Cl)C2c2ccc([N+](=O)[O-])cc2)cc1 (stereo unspecified)",
    "growth inhibition, %": 1.45
  },
  {
    "compound": "COc1cc([N+](=O)[O-])ccc1C(=O)NC(CCC(=O)O)C(=O)O (stereo unspecified)",
    "growth inhibition, %": -20.4
  },
  {
    "compound": "C[Si](C)(C)O/C=C1\\CCCCC1=O",
    "growth inhibition, %": 14.8
  },
  {
    "compound": "COc1cccc(N2C(=O)C3c4[nH]c5ccccc5c4C4CCCC4C3C2=O)c1 (stereo unspecified)",
    "growth inhibition, %": -8.15
  },
  {
    "compound": "CCOC(=O)c1ccc[n+]([O-])c1",
    "growth inhibition, %": -107
  },
  {
    "compound": "COC(=O)c1ccccc1NC(=O)Nc1ccc(F)c([N+](=O)[O-])c1",
    "growth inhibition, %": 0.85
  },
  {
    "compound": "COc1cc(C2c3cc4c(cc3[C@@H](Nc3ccc(C#N)cc3)C3COC(=O)[C@H]23)OCO4)cc(OC)c1O (stereo partly specified)",
    "growth inhibition, %": 85.5
  }
]
